As shown below, each of these binders has a reported AUC % to SRF813-hIgG1 value.
# Measured Target: T1, human PVRIG on FlpinCHO-PVRIG cells (human, UniProt Q6DKI7 41-326)
# T1 construct: whole, on cells
# T1 sequence (looked up): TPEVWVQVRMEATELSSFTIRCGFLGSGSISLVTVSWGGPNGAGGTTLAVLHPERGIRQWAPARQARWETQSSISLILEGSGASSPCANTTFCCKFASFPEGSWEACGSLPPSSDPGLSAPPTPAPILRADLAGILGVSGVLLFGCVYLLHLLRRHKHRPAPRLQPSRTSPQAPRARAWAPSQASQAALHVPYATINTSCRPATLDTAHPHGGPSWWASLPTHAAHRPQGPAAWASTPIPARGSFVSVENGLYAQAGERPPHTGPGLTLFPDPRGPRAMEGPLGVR
# Measurement Description: FACS, FlpinCHO-PVRIG cells
Write the value in % as a bare number.

Below, 3 binders whose answers are already recorded.
>  <Binder>
PVRIG-A118-H7 (Fc fusion, humanized variant of PVRIG-A118; also called A118.VH7; not shown: constant part not restated for the humanized forms; parents are VHH-hinge-CH2-CH3 of human IgG1; detected by anti-human) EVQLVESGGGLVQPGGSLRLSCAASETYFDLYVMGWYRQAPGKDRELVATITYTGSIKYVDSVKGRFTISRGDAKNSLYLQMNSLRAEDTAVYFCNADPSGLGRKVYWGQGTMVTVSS

>  <Unit Abbreviation>
%

>  <AUC % to SRF813-hIgG1>
177

$$$$
>  <Binder>
PVRIG-A50 (Fc fusion, heavy chain antibody VHH-hinge-CH2-CH3, human IgG1 constant part; also called PVRIG-50; not shown: human IgG1 hinge-CH2-CH3) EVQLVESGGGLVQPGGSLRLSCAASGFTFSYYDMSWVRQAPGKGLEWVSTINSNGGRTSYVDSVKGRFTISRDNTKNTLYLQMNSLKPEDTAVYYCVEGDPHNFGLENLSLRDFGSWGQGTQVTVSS

>  <Unit Abbreviation>
%

>  <AUC % to SRF813-hIgG1>
130

$$$$
>  <Binder>
PVRIG-A118-H4 (Fc fusion, humanized variant of PVRIG-A118; also called A118.VH4; not shown: constant part not restated for the humanized forms; parents are VHH-hinge-CH2-CH3 of human IgG1; detected by anti-human) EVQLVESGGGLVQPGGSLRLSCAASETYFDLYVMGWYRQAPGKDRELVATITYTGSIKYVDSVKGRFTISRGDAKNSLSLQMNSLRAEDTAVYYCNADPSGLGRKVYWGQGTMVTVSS

>  <Unit Abbreviation>
%

>  <AUC % to SRF813-hIgG1>
185

$$$$

The reported AUC % to SRF813-hIgG1 of the binder PVRIG-A50-H2a (Fc fusion, humanized variant of PVRIG-A50; also called A50.VH2a; not shown: constant part not restated for the humanized forms; parents are VHH-hinge-CH2-CH3 of human IgG1; detected by anti-human) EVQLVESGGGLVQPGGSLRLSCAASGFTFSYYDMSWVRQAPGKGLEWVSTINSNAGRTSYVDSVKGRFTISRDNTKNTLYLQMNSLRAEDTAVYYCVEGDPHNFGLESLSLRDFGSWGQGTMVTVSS was 110

PVRIG-A50-H1 (Fc fusion, humanized variant of PVRIG-A50; also called A50.VH1; not shown: constant part not restated for the humanized forms; parents are VHH-hinge-CH2-CH3 of human IgG1; detected by anti-human) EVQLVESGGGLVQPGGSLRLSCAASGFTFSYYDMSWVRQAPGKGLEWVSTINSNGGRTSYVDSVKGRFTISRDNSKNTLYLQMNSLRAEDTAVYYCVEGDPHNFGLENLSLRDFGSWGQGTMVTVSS yielded AUC % to SRF813-hIgG1 of 132

Reported AUC % to SRF813-hIgG1 for PVRIG-A118-H5 (Fc fusion, humanized variant of PVRIG-A118; also called A118.VH5; not shown: constant part not restated for the humanized forms; parents are VHH-hinge-CH2-CH3 of human IgG1; detected by anti-human) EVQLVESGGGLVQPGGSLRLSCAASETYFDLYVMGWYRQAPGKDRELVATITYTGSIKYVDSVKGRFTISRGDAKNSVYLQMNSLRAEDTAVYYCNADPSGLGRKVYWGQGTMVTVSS was 179

Entry PVRIG-A50-H1d (Fc fusion, humanized variant of PVRIG-A50; also called A50.VH1d; not shown: constant part not restated for the humanized forms; parents are VHH-hinge-CH2-CH3 of human IgG1; detected by anti-human) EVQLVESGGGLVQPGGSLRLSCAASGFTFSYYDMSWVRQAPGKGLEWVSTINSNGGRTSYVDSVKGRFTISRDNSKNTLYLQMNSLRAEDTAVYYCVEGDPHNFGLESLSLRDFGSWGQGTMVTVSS — recorded AUC % to SRF813-hIgG1 = 112

Item: PVRIG-A105-H3a (Fc fusion, humanized variant of PVRIG-A105; also called A105.VH3a; not shown: constant part not restated for the humanized forms; parents are VHH-hinge-CH2-CH3 of human IgG1; detected by anti-human) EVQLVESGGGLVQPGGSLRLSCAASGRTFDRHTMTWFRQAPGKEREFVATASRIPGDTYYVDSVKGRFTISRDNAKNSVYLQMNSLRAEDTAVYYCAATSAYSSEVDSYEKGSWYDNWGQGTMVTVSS | AUC % to SRF813-hIgG1: 23.9

Values from patent US20240343803A1
